measured_on: STING (Stimulator of Interferon Genes) (Homo sapiens, UniProt Q86WV6, G230A/H232R/R293Q/R71H)
Construct: host or cells: THP-1-Lucia ISG cells (human monocytic line)
Sequence (Q86WV6 whole entry R71H/G230A/H232R/R293Q): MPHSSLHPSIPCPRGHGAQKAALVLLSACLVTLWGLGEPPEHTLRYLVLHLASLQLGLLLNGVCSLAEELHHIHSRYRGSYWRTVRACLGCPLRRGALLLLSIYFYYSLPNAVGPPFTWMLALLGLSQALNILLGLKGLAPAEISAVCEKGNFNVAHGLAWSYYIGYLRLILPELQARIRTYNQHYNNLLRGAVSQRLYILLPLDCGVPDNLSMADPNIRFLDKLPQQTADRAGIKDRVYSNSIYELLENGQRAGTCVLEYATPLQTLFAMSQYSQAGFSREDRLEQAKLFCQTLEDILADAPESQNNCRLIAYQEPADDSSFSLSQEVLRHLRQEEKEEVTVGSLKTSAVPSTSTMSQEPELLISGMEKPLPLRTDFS
assay_explanation: ISG-LUC activation assay (ISRE-Luciferase assay in THP-1 Lucia ISG reporter cells)
Format: cell-based
measurement_conditions: THP-1 Lucia ISG cells, 24 hours, luciferase reporter; read-out: ISG-LUC activation assay (EC50)
Description: This has been established using a primary assay involving a human THP-1 cell line carrying an IRF-inducible reporter with 5 copies of the IFN signaling response element. Counter screens, involving alternative reporter constructs, rodent cell-based assays, as well as cGAS and STING knock-out cell lines, are used to eliminate luciferase artifacts and ensure human-rodent cross species reactivity, as well as pathway selectivity. […]
With a cut-off of 1000 nM, any EC50 strictly below it is called Y; any EC50 meeting it or above is called N.

The examples below pair each entry with its known result.
CCc1ccc(NC(=O)c2ccc(-n3ccnc3)nn2)c(C(=O)O)c1 [Compound 79] :: N
COC(=O)c1c(F)cc(F)cc1NC(=O)c1ccc(-n2ccnc2)nn1 [Compound 51] :: Y
COc1cc(NC(=O)c2ccc(-n3ccnc3)nn2)c(C(=O)O)cc1F [Compound 54] :: Y
COC(=O)c1c(F)cccc1NC(=O)c1ccc(-n2ccnc2)nn1 [Compound 72] :: N
COC(=O)c1cc(F)cc(F)c1NC(=O)c1ccc(-n2ccnc2)nn1 [Compound 19] :: Y

Prompt: Is it true that EC50 reported for O=c1[nH]c(-c2ccc(-n3ccnc3)nn2)nc2cc(F)c(F)cc12 [Compound 126] is less than 1000 nM?
Completion: N

Prompt: Is it true that EC50 reported for O=C(Nc1cc(F)c(OC(F)F)cc1C(=O)O)c1ccc(-n2ccnc2)nn1 [Compound 84] is less than 1000 nM?
Completion: N

Prompt: Is it true that EC50 reported for CCOC(=O)C1=C(NC(=O)c2ccc(-n3ccnc3)nn2)CCC1 [Compound 113] is less than 1000 nM?
Completion: N

====

measured_on: STING (Stimulator of Interferon Genes) (Homo sapiens, UniProt Q86WV6, G230A/H232R/R293Q/R71H)
Construct: host or cells: THP-1-Lucia ISG cells (human monocytic line)
assay_explanation: ISG-LUC activation assay (ISRE-Luciferase assay in THP-1 Lucia ISG reporter cells)
Format: cell-based
measurement_conditions: THP-1 Lucia ISG cells, 24 hours, luciferase reporter; read-out: ISG-LUC activation assay (EC50)
measured_parameter: EC50 (µM)
Field format: number, assumed µM, no unit text.

COC(=O)c1nc(OC)ccc1NC(=O)c1ccc(-n2ccnc2)nn1 :: 1.36

Lab book: EC50 of Cc1cc2nc(-c3ccc(-n4ccnc4)nn3)oc(=O)c2cc1C noted as 0.163

Lab book: EC50 of N#Cc1ccc(C(=O)O)c(NC(=O)c2ccc(-n3ccnc3)nn2)c1 noted as 4.09

Lab book: EC50 of COC(=O)c1cc(C#N)ccc1NC(=O)c1ccc(-n2ccnc2)nn1 noted as 0.588

Lab book: EC50 of COC(=O)c1c(F)ccc(Cl)c1NC(=O)c1ccc(-n2ccnc2)nn1 noted as 11.9

====

measured_on: STING (Stimulator of Interferon Genes) (Homo sapiens, UniProt Q86WV6, G230A/H232R/R293Q/R71H)
Construct: host or cells: THP-1-Lucia ISG cells (human monocytic line)
assay_explanation: ISG-LUC activation assay (ISRE-Luciferase assay in THP-1 Lucia ISG reporter cells)
Type: cell-based
measurement_conditions: THP-1 Lucia ISG cells, 24 hours, luciferase reporter; read-out: ISG-LUC activation assay (EC50)
measured_parameter: pEC50
pEC50 here: minus log base 10 of the concentration, concentration in moles per litre.

Lab book: pEC50 of COC(=O)c1cc2ccccc2cc1NC(=O)c1ccc(-n2ccnc2)nn1 noted as 7.25

Lab book: pEC50 of Cc1cc(NC(=O)c2ccc(-n3ccnc3)nn2)c(C(=O)O)cc1F noted as 5.56

Lab book: pEC50 of COC(=O)c1cc(OC)c(F)cc1NC(=O)c1ccc(-n2ccnc2)nn1 noted as 7.02

Lab book: pEC50 of Cc1ccc2nc(-c3ccc(-n4ccnc4)nn3)oc(=O)c2n1 noted as 5.03

Lab book: pEC50 of COC(=O)c1cc2cnn(C)c2cc1NC(=O)c1ccc(-n2ccnc2)nn1 noted as 6.90

Lab book: pEC50 of COC(=O)c1cc(C)c(Cl)cc1NC(=O)c1ccc(-n2ccnc2)nn1 noted as 6.91

Lab book: pEC50 of COC(=O)c1cc(F)c(OC)c(F)c1NC(=O)c1ccc(-n2ccnc2)nn1 noted as 6.11

Lab book: pEC50 of CCOC(=O)c1nc(C)ccc1NC(=O)c1ccc(-n2ccnc2)nn1 noted as 6.83

Lab book: pEC50 of COc1ccc2nc(-c3ccc(-n4ccnc4)nn3)oc(=O)c2c1 noted as 6.16
